# System: HOP92 NSCLC cell line
# test_details: MTT cell cytotoxicity assay, HOP92
# Format: cell-based, human
# condition_label: 72 h exposure, read-out: Cytotoxicity (IC50s)
reported_property: IC50

Prompt: // lookup IC50 for C[C@H]1O[C@@H](n2cc(F)c(=O)[nH]c2=O)[C@H](O)[C@@H]1O
Completion: 135 µM

====

# System: SQ20B head and neck cancer cell line
# test_details: MTT cell cytotoxicity assay, SQ20B
# Format: cell-based, human
# condition_label: 72 h exposure, read-out: Cytotoxicity (IC50s)
reported_property: pIC50
Answers are plain numbers, as −log10 of the molar value.

Prompt: // lookup pIC50 for C[C@H]1O[C@@H](n2cc(F)c(=O)[nH]c2=O)[C@H](O)[C@@H]1O
Completion: 4.57
